Data provenance is ChEMBL document CHEMBL1128415.

- test.target: Angiotensin II receptor (AT-1) type-1 (Rattus norvegicus) (UniProt P29089+P25095)
- procedure.text: Inhibition of pressor response induced by infusion of AII in rats when dose is administered intravenously
- Assay type: functional
measured.metric: ID50 (mg/kg)

Some solved entries appear below for comparison.
CCCCc1nc(SC)c(C(=O)NC(C(=O)O)C(C)CC)n1Cc1ccc(-c2ccccc2S(=O)(=O)NC(=O)NCCC)cc1 (centres undefined); 0.37
CCCCc1nc(SC)c(C(=O)O)n1Cc1ccc(-c2ccccc2S(=O)(=O)NC(=O)NCC)cc1; 0.17

A = CCCCc1nc(SC(F)(F)F)c(C(=O)O)n1Cc1ccc(-c2ccccc2S(=O)(=O)NC(=O)NCCC)cc1
B = CCCCc1nc(SC)c(C(=O)NS(=O)(=O)c2ccccc2)n1Cc1ccc(-c2ccccc2S(=O)(=O)NC(=O)NCCC)cc1
query: // max by ID50 over [ A , B ] Answer by quoting the chosen item's label.
result: B
